I'd be grateful if you could share measured growth inhibition for these entries.
assay: NCI Yeast Anticancer Drug Screen. Data for the rad50 strain (AID 155);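 also: 0% = growth of vehicle-only cultures of the same strain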; conditions: S. cerevisiae rad50 strain growth inhibition; at 3.7 µM; active compounds read high
About 79,000 compounds went through this panel and 15% of them were active in at least one assay; those are over-represented in the sample as a whole.
Answers are plain numbers, in %.

Molecule: c1ccc(-c2ccnc3c2ccc2c(-c4ccccc4)ccnc23)cc1
growth inhibition, %: 13

Take each entry in turn and give its growth inhibition.
1. Oc1ccc2ccccc2c1C(c1ccc(Cl)cc1)c1c(O)ccc2ccccc12
2. Oc1cccc2c(Cl)ccnc12

result:
1: 3; 2: 100

====

experiment: NCI Yeast Anticancer Drug Screen. Data for the rad14 strain (AID 159);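 also: 0% = growth of vehicle-treated control cultures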; conditions: S. cerevisiae rad14 strain growth inhibition; at 1.2 µM; active compounds read high
This is part of a sample that, as a whole, favours compounds with a hit. Of some 79,000 tested, about 15% had one in any assay.
Measured Quantity: growth inhibition (%)
Answers are plain numbers, in %.

# count of solved cases: 4
Molecule: O=C(/C=C/c1cccc(Br)c1)c1cccs1
Uom: %
Observed: -2
--
Molecule: C[S+](C)C1(c2ccccc2)C(=O)c2ccccc2C1=O
Uom: %
Observed: 1
--
Molecule: Cc1nc(-[n+]2nc(-c3ccncc3)nn2-c2ccccc2)sc1C
Uom: %
Observed: -2
--
Molecule: N#CN1C2CCC1CC(=O)C2
Uom: %
Observed: -26

Take each entry in turn and give its growth inhibition.
1. COc1cc2c3c(cccc3c1)C(=O)N(CCN(C)C)C2=O
2. CCCCCCCC1(N=[N+]=[N-])C(=O)c2ccccc2N(C)C1=O (configuration not stated)
3. O=Nc1c(NO)ccc2nn(-c3ccccc3)nc12
4. OC(COc1cccc2ccccc12)CN1CCOCC1 (configuration not stated)
5. O=C1OC(CCl)CN1/N=C/c1ccc([N+](=O)[O-])o1 (configuration not stated)

result:
1. -33
2. -23
3. 7
4. 41
5. -7

Take each entry in turn and give its growth inhibition.
1. Cc1ccc(C2C(Cl)C(=O)N2n2cnc3ccccc3c2=O)cc1 (configuration not stated)
2. CC[C@@]1(O)C(=O)OCc2c1cc1n(c2=O)Cc2cc3c(N)cccc3nc2-1
3. Fc1ccc(NC(=S)SCc2ccc3c(c2)OCO3)cc1F
4. Cc1ccc(S(=O)(=O)NCCSS(=O)(=O)c2ccc(C)cc2)cc1
5. O=C1C=CC(=Nc2ccc3c(c2)Cc2cc(NC(=O)C(F)(F)F)ccc2-3)O1
6. CCC(=O)Oc1c(Cl)cc(Cl)c2ccccc12
7. O=C(OCCN1CCCCCC1)C(c1ccsc1)C1CCCCC1 (configuration not stated)

result:
[-15, -20, -9, -10, 6, -7, 35]

====

assay: NCI Yeast Anticancer Drug Screen. Data for the sgs1 strain (AID 173);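 also: 0% = growth of vehicle-only control cultures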; settings: S. cerevisiae sgs1 mutant, at 11.0 µM, active compounds read high
The panel holds about 79,000 compounds, 15% with a hit somewhere; the sample as a whole holds those more often.
Threshold rule: growth inhibition greater than or equal to 5% is rule met; below that, rule not met.

Molecule: Fc1ccc(NC(=S)SCc2ccc(Cl)c(Cl)c2)cc1F
Category: rule met
--
Molecule: COc1ccc(C2c3cc4c(cc3OC(C)(O)C2C)OCO4)c(OC)c1 (configuration not stated)
Category: rule not met
--
Molecule: CC(C)OC(=O)Oc1ccccc1OC(=O)OC(C)C
Category: rule not met
--
Molecule: COc1ccc(/C=C2\SC(=S)N(/C=C/c3nc4ccccc4[nH]c3=O)C2=O)cc1OC
Category: rule met

query: Could you tell me if the measured growth inhibition of `CC[n+]1ccc2c(C)c3[nH]c4ccc(O)cc4c3c(C)c2c1` reaches 5% or more?
result: rule met

====

assay: NCI Yeast Anticancer Drug Screen. Data for the bub3 strain (AID 167); conditions: S. cerevisiae bub3 mutant strain, at 1.2 µM, active compounds read high
Compounds without any hit were thinned out: in the full panel of roughly 79,000, 15% have a hit.
I'd be grateful if you could share measured growth inhibition for these entries.
One number for each entry, in %.

Molecule: Cc1ccc(N)c(S)c1
Observed: -35
--
Molecule: CCOC(=O)c1cnc2cc(C(F)(F)F)ccc2c1N=[N+]=[N-]
Observed: 11
--
Molecule: CCCCN(CCCC)CCSc1ccc(Cl)cc1
Observed: -9
--
Molecule: C/C(=N\NC(=S)SCc1ccccc1)c1ccccn1
Observed: 3
--
Molecule: COC(=O)c1cc(-c2ccc(C)cc2)[nH]c(=O)c1C#N
Observed: -8
--
Molecule: Nc1ccc2c(c1)C(=O)c1cccc(N)c1C2=O
Observed: -1
--
Molecule: O=C([O][Sn]([O]C(=O)c1ccccc1)([c]1ccccc1)[c]1ccccc1)c1ccccc1
Observed: 8
--
Molecule: CCCCCCCCCCC(=O)Cl
Observed: -9
--
Molecule: CCOC(=O)C(NC(=O)c1ccccc1)(N1CCN(c2cc3c(cc2F)c(=O)c(C(=O)O)cn3C2CC2)CC1)C(F)(F)F (centres undefined)
Observed: -1
--
Molecule: Cn1c(=O)c(-c2ccccc2)c(N=[N+]=[N-])c2ccccc21
Observed: 26

Take each entry in turn and give its growth inhibition.
1. COc1cc2ccc(/C=C\[N+](=O)[O-])cc2cc1OC
2. O=C(O)c1cccc(-c2c3ccc(=O)cc-3oc3cc(O)ccc23)c1
3. C=C1CC(Cn2cc(Br)c(=O)[nH]c2=O)(c2ccc(-c3ccccc3)cc2)OC1=O (centres undefined)

result:
[-30, 10, -1]

Take each entry in turn and give its growth inhibition.
1. CC1(C)C(=O)OC(n2cc(F)c(=O)[nH]c2=O)C1=O (centres undefined)
2. OCC1OC(OCC(O)C(O)C(O)C(/C=N/Nc2ccccc2)=N/Nc2ccccc2)C(O)C(O)C1O (centres undefined)
3. Fc1ccc(NC(=S)SCc2ccc(Cl)c(Cl)c2)cc1F
4. c1ccc2c(c1)Oc1cccc3cccc-2c13
5. CO[C@H]1C[C@](C)(O)Cc2cc3c(c(O)c21)C(=O)c1c(O)cc2c(c1C3=O)O[C@@H]1O[C@@]2(C)[C@H](O)[C@@H](N(C)C)[C@@H]1O

result:
19
2
-2
6
-15

Take each entry in turn and give its growth inhibition.
1. COc1cc2c3c(cccc3c1)C(=O)N(CCN(C)C)C2=O
2. O=C(O)C1CCCCC1c1c2ccc(=O)c(O)c-2oc2c(O)c(O)ccc12 (centres undefined)
3. CC[C@@]1(O)C(=O)OCc2c1cc1n(c2=O)Cc2cc3c(N)cccc3nc2-1

result:
[-13, 0, -28]

Take each entry in turn and give its growth inhibition.
1. CC(C)/C(Cl)=N\OC(=O)Nc1cccc(Cl)c1
2. N#C/C(=C\c1cccc(OCc2ccccc2)c1)c1ccc([N+](=O)[O-])cc1
3. Nc1ccccc1CC(O)C(=O)O (centres undefined)
4. O=C(c1cc(Br)ccc1O)c1cc(Br)ccc1O
5. C/C(=N\NC(=S)N1CCCCC1)c1cccc(C)n1
6. O=Nc1c(NO)ccc2nn(-c3ccccc3)nc12
7. NC(N)=N/N=C\c1c2ccccc2cc2ccccc12

result:
1. 1
2. -28
3. 5
4. 17
5. 21
6. 3
7. -43

Take each entry in turn and give its growth inhibition.
1. [N-]=N[N+]#I1OC(C(F)(F)F)(C(F)(F)F)c2ccccc21
2. c1ccc2c(c1)c1ncccc1c1nccnc21
3. CC(=O)OC1CCC2(C)C(=CCC3C4CCC5(OC6CC(C)CN(C(C)=O)C6C5C)C(C)=C4C(=O)C32)C1 (centres undefined)

result:
1. 28
2. 4
3. -2

Take each entry in turn and give its growth inhibition.
1. Cn1c(N)nc(-c2ccc(Cl)cc2)c1SSc1c(-c2ccc(Cl)cc2)nc(N)n1C
2. NNC(=O)CCc1ccc2ccc3ccccc3c2c1
3. CN(C)CCOc1ccc2c(c1)C/C(=C/c1ncc([N+](=O)[O-])n1C)C2=O

result:
1. -4
2. -8
3. 3

====

I'd be grateful if you could share measured growth inhibition for these entries.
experiment: NCI Yeast Anticancer Drug Screen. Data for the rad14 strain (AID 159);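 also: 0% = growth of vehicle-treated control cultures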; conditions: S. cerevisiae rad14 strain growth inhibition; at 33.0 µM; active compounds read high
This is part of a sample that, as a whole, favours compounds with a hit. Of some 79,000 tested, about 15% had one in any assay.
Answers are plain numbers, in %.

# count of solved cases: 5
Smiles Structure: O=C(NNc1ccnc2cc(Cl)ccc12)/C(=C\c1ccccc1Cl)NC(=O)c1ccccc1
growth inhibition / %: 3

Smiles Structure: C[C@H](CCC(=O)NN)[C@H]1CC[C@H]2[C@@H]3CC[C@@H]4C[C@H](O)CC[C@]4(C)[C@H]3CC[C@]12C
growth inhibition / %: -5

Smiles Structure: CSC(=S)Nc1cccc(C)n1
growth inhibition / %: 2

Smiles Structure: Cc1ccc(S(=O)(=O)NCCSS(=O)(=O)c2ccc(C)cc2)cc1
growth inhibition / %: 98

Smiles Structure: CC(=O)[O][Bi]([c]1ccccc1)[c]1ccccc1
growth inhibition / %: 95

Note: attention shifts to another entry.
query: May I ask what growth inhibition has been recorded for `O=C(OCC=C1CCCC1)c1cc([N+](=O)[O-])cc([N+](=O)[O-])c1` ?
result: 71
